Measurement kind: melting point (°C)

# Compound, Comparison operator, Endpoint result
data = [
    ("N#Cc1cnc2sc(-c3ccccc3)cc2c1NCCc1c[nH]cn1", ">", 245),
    ("NCCNc1ccc([N+](=O)[O-])cc1Cl", "=", 116),
    ("CCOC(=O)C1=C(N)NC(c2ccccc2)=CC1c1ccccc1 (stereo not given)", "=", 159),
]

----------
This section presents compounds with their documented melting point values.
Measurement kind: melting point

# Compound, Endpoint result
data = [
    ("CCCCCN(Cc1ccc(-c2ccccc2S(=O)(=O)NC(C)(C)C)cc1)C(=O)Cl", "125 to 126 °C"),
    ("COC(=O)c1nc(-c2ccc(C)c(C)c2)cc(N)c1Cl", "154 to 156 °C"),
    ("Cn1nc(C(=O)O)cc1-c1ccccc1", "149 to 150 °C"),
    ("COC(=O)CCc1ccc(O)c([N+](=O)[O-])c1", "60 to 62 °C"),
    ("CC(C)(C)OC(=O)n1cccc1-c1ccc2c(c1)C1(CCCC1)C(=O)N2", "179 to 180 °C"),
    ("CC1(CO)COC(Cn2ccnc2)(c2ccc(Cl)cc2Cl)OC1 (stereo unspecified)", "174 to 175 °C"),
    ("CCOc1ccccc1CN1CCC(=O)C(C(c2ccc(F)cc2)c2ccc(F)cc2)C1 (stereo unspecified)", "137 to 138 °C"),
    ("O=C(Nc1cc(CCCS(=O)(=O)c2ccc(Cl)cc2)ccc1OCc1nnn[nH]1)c1cccc(OCc2nc3ccccc3s2)c1", "189 to 191 °C"),
    ("CC[N+](CC)(CC)C1CC(=O)N1C(C(=O)OCc1ccc([N+](=O)[O-])cc1)=C([O-])CCSC (stereo unspecified)", "91 °C"),
    ("COC(=O)c1cccc(Cn2ccc(OCc3ccc(F)cc3F)c(Br)c2=O)c1", "115 to 117 °C"),
    ("CCCCCCCCCCCCCCCCC(CO)OC (stereo unspecified)", "36 to 38 °C"),
    ("Cc1cc(=O)n(-c2cc3c(cc2F)OC(CC#N)C(=O)N3)c(=O)[nH]1 (stereo unspecified)", "> 230 °C"),
    ("N#Cc1nc(-c2ccccc2)c(-c2ccccc2)nc1Cl", "201 to 204 °C"),
    ("CCc1ccc2c(c1)C=Cc1oc(C)nc1C2c1cn(Cc2nc(C(=O)O)co2)c(=O)[nH]c1=S (stereo unspecified)", "210 °C"),
    ("COC(=O)c1c(-c2ccc(Cl)cc2)ccnc1Sc1nc(OC)cc(OC)n1", "138 to 142 °C"),
    ("C=CCn1cc(C(O)(c2ccc3c(cnn3C(=O)NCC)c2)C(F)(F)F)c2ccccc21 (stereo unspecified)", "162 to 164 °C"),
    ("CC1CC(=O)Nc2nc(C#N)c3ncccc3c21 (stereo unspecified)", "> 300 °C"),
    ("CC(C)C(c1ccc2[nH]c(=O)c(C(=O)O)nc2c1)n1ccnc1 (stereo unspecified)", "238 °C"),
    ("CCCCCCCCCCCCCCCCCCCCC(CCCCCCCCCCCCCC)C(=O)O (stereo unspecified)", "65 to 67 °C"),
    ("COc1cc(OC)nc(OC(C(=O)O)C(C)(c2ccccc2)c2ccccc2)n1 (stereo unspecified)", "229 to 234 °C"),
    ("CC1(C)COC(=N)N1c1nc(-c2ccc(C#N)cc2)cs1", "158 to 161 °C"),
    ("CC(=O)NCc1ccc(CN2CCN(c3ccc(Cl)cn3)CC2)cc1", "155 to 156 °C"),
    ("O=C(c1cccnc1-c1ccncc1)N1CCC(O)(Cc2ccccc2)CC1", "150 °C"),
    ("O=Cc1ccc(C(F)(F)F)cc1Oc1ccccc1", "57 to 59 °C"),
    ("COc1cccc2sc(-c3ccc(C(C)(C)C)cc3)nc12", "90 to 91 °C"),
    ("COC(=O)c1cc(C(=O)NN)c2cc(Cc3ccc(F)cc3)cnc2c1O", "156 to 157 °C"),
    ("OCCSc1nc(-c2ccccc2)c2cc(Cl)ccc2n1", "124 °C"),
    ("Cc1ccc(C(=O)c2cccc(C)c2N)cc1", "77 to 78 °C"),
    ("Cc1cc(Cl)c2c(n1)C(O)CCC2 (stereo unspecified)", "87 to 90 °C"),
    ("CC(Cn1nccn1)n1nnc2cc3c(=O)n(C(C)Cn4ncnn4)nnc3cc2c1=O (stereo unspecified)", "139 to 140 °C"),
    ("CCCCCCC1C(=O)NC2(C(O)C3CCCCC3)C(=O)OC12C (stereo unspecified)", "167 °C"),
]
